Test system: Saccharomyces cerevisiae
Assay: Antifungal activity against recombinant Saccharomyces cerevisiae Y2411 overexpressing ScErg11 assessed as inhibition of fungal growth incubated for 48 hrs by CLSI based broth microdilution assay
Assay type: functional
MEASURED_PROPERTY: MIC (mg/L)
Numbers only; they are read as mg/L.

Record excerpt, results attached:
COMPOUND	MIC [mg/L]
C[C@@H](c1nc(-c2ccc(C#N)cc2)cs1)[C@](O)(Cn1cncn1)c1ccc(F)cc1F	0.008
C[C@@H](OCc1ccn(Cc2ccc(F)cc2)n1)[C@](O)(Cn1cncn1)c1ccc(F)cc1F	0.016
OC(Cn1cncn1)(Cn1cncn1)c1ccc(F)cc1F	1
CC[C@@H]([C@H](C)O)n1ncn(-c2ccc(N3CCN(c4ccc(OC[C@@H]5CO[C@@](Cn6cncn6)(c6ccc(F)cc6F)C5)cc4)CC3)cc2)c1=O	0.5
CC(=O)N1CCN(c2ccc(OCC3COC(Cn4ccnc4)(c4ccc(Cl)cc4Cl)O3)cc2)CC1 (configuration not stated)	0.25
C[C@@H](c1ncncc1F)[C@](O)(Cn1cncn1)c1ccc(F)cc1F	0.008

Proceeding to the next compound to report its MIC.
Ask: For the compound shown here, `C[C@@H](OCc1ccn(Cc2ccc(Cl)cc2)n1)[C@](O)(Cn1cncn1)c1ccc(F)cc1F` , give the reported MIC.
Reply: 0.008

====

System: Pichia kudriavzevii
Test: Antifungal activity against Candida krusei 4996 assessed as inhibition of fungal growth incubated for 48 hrs by CLSI based broth microdilution assay
Type: functional
Rule: MIC below 4 µg/mL gives label 1, anything at or above gives label 0.

Solved entries (count: 5):
MOL_SMILES	CLASSIFICATION
C[C@@H](OCc1ccn(Cc2c(F)cc(F)cc2F)n1)[C@](O)(Cn1cncn1)c1ccc(F)cc1F	label 0
C[C@@H](OCc1ccn(Cc2ccc(Cl)cc2F)n1)[C@](O)(Cn1cncn1)c1ccc(F)cc1F	label 1
C[C@@H](c1nc(-c2ccc(C#N)cc2)cs1)[C@](O)(Cn1cncn1)c1ccc(F)cc1F	label 1
C[C@@H](OCc1ccn(Cc2ccc(I)cc2)n1)[C@](O)(Cn1cncn1)c1ccc(F)cc1F	label 1
C[C@@H](OCc1ccn(Cc2cccc(F)c2F)n1)[C@](O)(Cn1cncn1)c1ccc(F)cc1F	label 0

Ask: For this molecule, is MIC lower than 4 µg/mL? `C[C@@H](OCc1ccn(Cc2c(F)cccc2F)n1)[C@](O)(Cn1cncn1)c1ccc(F)cc1F`
Reply: label 0

Ask: Lab note: confirm whether the reported MIC for this molecule is below 4 µg/mL, equality not counting. molecule: `Cc1cccc(Cn2ccc(CO[C@H](C)[C@](O)(Cn3cncn3)c3ccc(F)cc3F)n2)c1`
Reply: label 0

Ask: Would you kindly verify if MIC of `C[C@@H](OCc1ccn(Cc2ccccc2Cl)n1)[C@](O)(Cn1cncn1)c1ccc(F)cc1F` is strictly less than 4 µg/mL?
Reply: label 0

====

Test system: Candida parapsilosis
Test: Antifungal activity against Candida parapsilosis 22019 assessed as inhibition of fungal growth incubated for 48 hrs by CLSI based broth microdilution assay
Type: functional
Conditions: Lodderomyces parapsilosis
MEASURED_PROPERTY: MIC (µg/mL)
Kindly provide the numeric value in µg/mL only, without the unit symbol.

Please review the entries below; each comes with its answer.
MOL_SMILES	SYSTEM	UNIT_ANNOTATION	MEASURED
C[C@@H](OCc1ccn(Cc2ccc(OC(F)(F)F)cc2)n1)[C@](O)(Cn1cncn1)c1ccc(F)cc1F	Candida parapsilosis	µg/mL	0.5
C[C@@H](OCc1ccn(Cc2ccc(C(F)(F)F)cc2)n1)[C@](O)(Cn1cncn1)c1ccc(F)cc1F	Candida parapsilosis	µg/mL	0.5
COc1ccc(Cn2ccc(CO[C@H](C)[C@](O)(Cn3cncn3)c3ccc(F)cc3F)n2)cc1	Candida parapsilosis	µg/mL	1

Ask: Which MIC value is on record for `C[C@@H](OCc1ccn(Cc2cccc(Cl)c2)n1)[C@](O)(Cn1cncn1)c1ccc(F)cc1F` ?
Reply: 0.5

These entries and their values trace back to ChEMBL document CHEMBL5579851.
